Source of measurements: IntAct's records for PubMed 12591280

B1: Actin nucleation-promoting factor WAS (Homo sapiens), P42768 (parent)
chain: MSGGPMGGRPGGRGAPAVQQNIPSTLLQDHENQRLFEMLGRKCLTLATAVVQLYLALPPGAEHWTKEHCGAVCFVKDNPQKSYFIRLYGLQAGRLLWEQELYSQLVYSTPTPFFHTFAGDDCQAGLNFADEDEAQAFRALVQEKIQKRNQRQSGDRRQLPPPPTPANEERRGGLPPLPLHPGGDQGGPPVGPLSLGLATVDIQNPDITSSRYRGLPAPGPSPADKKRSGKKKISKADIGAPSGFKHVSHVGWDPQNGFDVNNLDPDLRSLFSRAGISEAQLTDAETSKLIYDFIEDQGGLEAVRQEMRRQEPLPPPPPPSRGGNQLPRPPIVGGNKGRSGPLPPVPLGIAPPPPTPRGPPPPGRGGPPPPPPPATGRSGPLPPPPPGAGGPPMPPPPPPPPPPPSSGNGPAPPPLPPALVPAGGLAPGGGRGALLDQIRQGIQLNKTPGAPESSALQPPPQSSEGLVGALMHVMQKRSRAIHSSDEGEDQAGDEDEDDEWDD

- Variants of: B1
- condition_summary: with wipf1_human WIPF1, O43516
- Sequence (O43516 whole entry): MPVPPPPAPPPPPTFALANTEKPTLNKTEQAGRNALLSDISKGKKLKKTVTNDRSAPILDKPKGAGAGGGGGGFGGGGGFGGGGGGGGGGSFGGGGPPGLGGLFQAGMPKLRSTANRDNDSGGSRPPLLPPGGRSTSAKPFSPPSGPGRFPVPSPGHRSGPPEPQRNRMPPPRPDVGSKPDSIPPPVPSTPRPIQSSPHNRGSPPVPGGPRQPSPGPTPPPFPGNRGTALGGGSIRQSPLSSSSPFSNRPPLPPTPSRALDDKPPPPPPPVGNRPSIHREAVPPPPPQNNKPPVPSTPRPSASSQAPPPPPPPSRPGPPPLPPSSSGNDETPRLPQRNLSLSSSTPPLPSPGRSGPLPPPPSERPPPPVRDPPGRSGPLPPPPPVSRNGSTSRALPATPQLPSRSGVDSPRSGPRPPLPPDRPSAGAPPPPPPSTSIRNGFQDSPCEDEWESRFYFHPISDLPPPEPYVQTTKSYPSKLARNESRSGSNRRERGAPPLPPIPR
metric_name: effect of a mutation on the interaction

variant_string	recorded_result
R138E	with no effect
R138A	with no effect
